- Test system: SK-MEL-2 melanoma
- assay.info: NCI tumour cell line growth inhibition, 48 h
experimental.endpoint: GI50

Below, each entry is followed by its recorded GI50 result.
>  <compound>
COc1cc(/C=C/C(=O)/C=C/c2ccc(-n3ccnc3)cc2)ccc1O

>  <GI50>
20.8 µM

$$$$
>  <compound>
C#CCN(CCCOc1ccc(Cl)cc1Cl)CCCSC(=O)CCCCCN1/C(=C\C=C2/CCCC(/C=C/C3=[N+](CCCCCC(=O)[O-])c4ccccc4C3(C)C)=C2Cl)C(C)(C)c2ccccc21

>  <GI50>
1.77 µM

$$$$

I'm hoping you can list GI50 for every compound here, please.
1. COc1cc(-c2ccc[nH]2)[nH]c1/C=C1\N=C(C)C(C(=O)NC(C)C)=C1C
2. O=C(Cc1csc2nc(-c3ccc(Br)cc3)cn12)N/N=C/c1ccccc1O

Result:
1: 2.45 µM; 2: 21.1 µM

====

- System: SNB-19 CNS
- assay.info: NCI tumour cell line growth inhibition, 48 h
Provide the reported TGI of each item.

>  <compound>
CN(C)CCC(/C=C/c1ccccc1)=N\Nc1c(F)c(F)c(F)c(F)c1F

>  <TGI>
> 100 µM

$$$$
>  <compound>
Oc1ccccc1/C=N/c1nc(-c2ccccc2)cs1

>  <TGI>
> 100 µM

$$$$
>  <compound>
Cn1cc(C2=C(c3cccc([N+](=O)[O-])c3)C(=O)NC2=O)c2ccccc21

>  <TGI>
> 25 µM

$$$$
>  <compound>
C#CCN(CCCOc1ccc(Cl)cc1Cl)CCCSC(=O)CCCCCN1/C(=C\C=C2/CCCC(/C=C/C3=[N+](CCCCCC(=O)[O-])c4ccccc4C3(C)C)=C2Cl)C(C)(C)c2ccccc21

>  <TGI>
3.64 µM

$$$$
>  <compound>
Cc1cc(C)n(C(=CC(=O)C(Cl)Cl)n2nc(C)cc2C)n1

>  <TGI>
41.3 µM

$$$$
>  <compound>
Cc1cc2nc3c(C(OC4OC(CO)C(O)C(O)C4O)C(O)CO)nn(-c4ccc(F)cc4)c3nc2cc1C (stereo not given)

>  <TGI>
> 100 µM

$$$$

// for each compound in input: emit TGI
1. O=c1ccc(=O)c2c1c1[nH]c3ccccc3c1c1c(=O)c3ccccc3c(=O)c21
2. Cc1cc(N(CCC#N)CCC#N)ccc1/C=C1N=C(/C=C\c2ccccc2)N(c2ccc(C(=O)O)cc2)C\1=O
3. COc1cc(/C=C/C(=O)/C=C/c2ccc(-n3ccnc3)cc2)ccc1O

Result:
> 10 µM
> 100 µM
47.7 µM

====

- Tested on: MALME-3M melanoma
- assay.info: NCI tumour cell line growth inhibition, 48 h
Where a SMILES comes first, the peptide text is derived from it. The star is where a group is joined. Fmoc = O=C(OCC1c2ccccc2-c2ccccc21)*; OBn = c1ccc(CO*)cc1; tBu = CC(C)(C)*
What TGI was measured for each of the following?

Answered examples (5):
>  <molecule>
CN1CCN(Cc2ccc(C(=S)Nc3ccccc3)s2)CC1

>  <TGI>
> 100 µM

$$$$
>  <molecule>
CCOc1ccc(N=Nc2c(-c3ccccc3)nn(C(=O)CC(=O)Nc3ccccc3Cl)c2-c2ccccc2)cc1

>  <TGI>
> 100 µM

$$$$
>  <molecule>
Cc1cc(C)c(C2=NO[C@@H]3[C@H]2C(=O)C=C2N(Cc4ccccc4)CCO[C@@]23O)c(C)c1

>  <TGI>
> 100 µM

$$$$
>  <molecule>
CC(OC(C)(C)C)C(NC(=O)OCC1c2ccccc2-c2ccccc21)C(=O)NC(Cc1ccccc1)C(=O)OCc1ccccc1 (stereo not given) (Fmoc-Thr(tBu)-Phe-OBn; configuration not given here)

>  <TGI>
> 100 µM

$$$$
>  <molecule>
c1ccc(CN2CCC(CNc3ncnc4ccccc34)C2)cc1 (stereo not given)

>  <TGI>
43 µM

$$$$

Would you mind giving TGI for every molecule in the list below?
1. CC(C)(C)[C@H]1NC(=O)CN1C(=O)OCc1ccccc1
2. COc1ccc(C2NC(c3ccc(OC)cc3)C(C)C(=O)C2C)cc1 (stereo not given)

Result:
> 100 µM
> 100 µM
